# procedureText: Phase 1 single-dose plasma pharmacokinetics in subjects with normal hepatic function, mild or moderate hepatic impairment
# Type: in vivo, human
# details: human, plasma, po, 200 mg, Mild Hepatic Impairment; 16 h; 200 mg single oral dose; read-out: Plasma concentration, Geometric Mean
recordedEndpoint: concentration at 16 h (ng/mL)
Numbers only here, please. The scale is ng/mL.

Per the records, this molecule ( N#CC1(c2ccc(NC(=O)c3cccnc3NCc3ccncc3)cc2)CCCC1 [Rivoceranib] ) has concentration at 16 h equal to 45.3

* * *

# procedureText: Phase 1 single-dose plasma pharmacokinetics in subjects with normal hepatic function, mild or moderate hepatic impairment
# Format: in vivo, human
# details: human, plasma, po, 200 mg, Mild Hepatic Impairment; 12 h; 200 mg single oral dose; read-out: Plasma concentration, Geometric Mean
# Description: Patients: 27 subjects were enrolled within the following groups based on their Child-Pugh (CP) classification score: • Group 1: Matched-control healthy subjects with normal hepatic function; • Group 2: Subjects with mild hepatic impairment (CP Class A, score of 5 or 6); • Group 3: Subjects with moderate hepatic impairment (CP Class B, score of 7 to 9). A parallel design strategy was adopted for the hepatic impairment groups. […]
recordedEndpoint: concentration at 12 h

Looking up N#CC1(c2ccc(NC(=O)c3cccnc3NCc3ccncc3)cc2)CCCC1 [Rivoceranib] , I see its concentration at 12 h listed as 54.9 ng/mL

* * *

# procedureText: Phase 1 single-dose plasma pharmacokinetics in subjects with normal hepatic function, mild or moderate hepatic impairment
# Type: in vivo, human
# details: human, plasma, po, 200 mg, Normal Hepatic Function; 200 mg single oral dose; read-out: AUC0-t, Median
recordedEndpoint: AUC(0-t) (ng·h/mL)
Value expressed in ng·h/mL; do not type the unit.

Recorded result, N#CC1(c2ccc(NC(=O)c3cccnc3NCc3ccncc3)cc2)CCCC1 , AUC(0-t): 2780

* * *

# procedureText: Phase 1 single-dose plasma pharmacokinetics in subjects with normal hepatic function, mild or moderate hepatic impairment
# Type: in vivo, human
# details: human, plasma, po, 200 mg, Normal Hepatic Function; 200 mg single oral dose; read-out: tmax, Median
recordedEndpoint: Tmax

The molecule identified as N#CC1(c2ccc(NC(=O)c3cccnc3NCc3ccncc3)cc2)CCCC1 [Rivoceranib] registered its Tmax at 2 h

* * *

# testSystem: CYP2B6 (Homo sapiens)
# Sequence (P20813 whole entry): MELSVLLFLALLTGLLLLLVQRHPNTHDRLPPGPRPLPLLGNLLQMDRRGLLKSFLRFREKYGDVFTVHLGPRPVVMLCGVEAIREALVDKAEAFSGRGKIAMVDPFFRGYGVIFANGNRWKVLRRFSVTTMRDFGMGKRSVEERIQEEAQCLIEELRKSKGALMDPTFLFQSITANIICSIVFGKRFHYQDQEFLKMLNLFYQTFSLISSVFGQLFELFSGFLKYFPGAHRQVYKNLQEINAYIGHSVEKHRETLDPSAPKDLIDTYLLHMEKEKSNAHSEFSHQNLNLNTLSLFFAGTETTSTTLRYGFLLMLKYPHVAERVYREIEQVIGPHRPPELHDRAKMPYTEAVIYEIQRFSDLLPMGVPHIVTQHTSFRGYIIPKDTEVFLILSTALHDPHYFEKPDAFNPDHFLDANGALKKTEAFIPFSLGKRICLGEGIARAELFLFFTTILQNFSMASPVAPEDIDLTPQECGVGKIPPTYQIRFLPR
# procedureText: In vitro CYP phenotyping and metabolism study, recombinant CYP2B6
# Type: in vitro ADME
# details: human; Recombinant CYP2B6; 5 μM; read-out: t½
recordedEndpoint: half-life at 5 µM (h)
# output: bare number, implied unit h

Lab note: measured half-life at 5 µM of N#CC1(c2ccc(NC(=O)c3cccnc3NCc3ccncc3)cc2)CCCC1 [Rivoceranib] was 5.73

* * *

# procedureText: Phase 1 single-dose plasma pharmacokinetics in subjects with normal hepatic function, mild or moderate hepatic impairment
# Format: in vivo, human
# details: human, plasma, po, 200 mg, Normal Hepatic Function; 200 mg single oral dose; read-out: VZ/F, Median
recordedEndpoint: Vd/F

Vd/F recorded for this compound, N#CC1(c2ccc(NC(=O)c3cccnc3NCc3ccncc3)cc2)CCCC1 , is 1190 L

* * *

# procedureText: Phase 1 single-dose plasma pharmacokinetics in subjects with normal hepatic function, mild or moderate hepatic impairment
# Type: in vivo, human
# details: human, plasma, po, 200 mg, Mild Hepatic Impairment; 8 h; 200 mg single oral dose; read-out: Plasma concentration, Arithmetic Mean
recordedEndpoint: concentration at 8 h (ng/mL)
Answer in ng/mL, number only, no unit symbol.

Lab note: measured concentration at 8 h of N#CC1(c2ccc(NC(=O)c3cccnc3NCc3ccncc3)cc2)CCCC1 was 96

* * *

# procedureText: Phase 1 single-dose plasma pharmacokinetics in subjects with normal hepatic function, mild or moderate hepatic impairment
# Type: in vivo, human
# details: human, plasma, po, 200 mg, Normal Hepatic Function; 200 mg single oral dose; read-out: AUC0-t, Geometric Mean
recordedEndpoint: AUC(0-t) (ng·h/mL)
The reply should contain only the number, in ng·h/mL.

Lab note: measured AUC(0-t) of N#CC1(c2ccc(NC(=O)c3cccnc3NCc3ccncc3)cc2)CCCC1 [Rivoceranib] was 2560

* * *

# procedureText: Phase 1 single-dose plasma pharmacokinetics in subjects with normal hepatic function, mild or moderate hepatic impairment
# Format: in vivo, human
# details: human, plasma, po, 200 mg, Moderate Hepatic Impairment; 8 h; 200 mg single oral dose; read-out: Plasma concentration, Median
recordedEndpoint: concentration at 8 h

concentration at 8 h reading for N#CC1(c2ccc(NC(=O)c3cccnc3NCc3ccncc3)cc2)CCCC1 : 85 ng/mL

* * *

# procedureText: Phase 1 single-dose plasma pharmacokinetics in subjects with normal hepatic function, mild or moderate hepatic impairment
# Assay type: in vivo, human
# details: human, plasma, po, 200 mg, Moderate Hepatic Impairment; 6 h; 200 mg single oral dose; read-out: Plasma concentration, Arithmetic Mean
recordedEndpoint: concentration at 6 h (ng/mL)
# output: bare number, implied unit ng/mL

The measured concentration at 6 h associated with N#CC1(c2ccc(NC(=O)c3cccnc3NCc3ccncc3)cc2)CCCC1 reads 106

* * *

# procedureText: Phase 1 study: unbound plasma concentration and fraction unbound (protein binding)
# Type: in vivo, human
# details: human, plasma, po, 200 mg, Mild Hepatic Impairment; 24 h; 200 mg single oral dose; read-out: Unbound Concentration, Median
recordedEndpoint: concentration at 24 h (ng/mL)
Numeric only. Scale: ng/mL

The compound identified as N#CC1(c2ccc(NC(=O)c3cccnc3NCc3ccncc3)cc2)CCCC1 registered its concentration at 24 h at 0.65

* * *

# procedureText: Phase 1 study: unbound plasma concentration and fraction unbound (protein binding)
# Assay type: in vivo, human
# details: human, plasma, po, 200 mg, Moderate Hepatic Impairment; 24 h; 200 mg single oral dose; read-out: Unbound Concentration, Median
recordedEndpoint: concentration at 24 h

Record N#CC1(c2ccc(NC(=O)c3cccnc3NCc3ccncc3)cc2)CCCC1 [Rivoceranib] , field concentration at 24 h: 0.82 ng/mL

* * *

# procedureText: Phase 1 study: unbound plasma concentration and fraction unbound (protein binding)
# Type: in vivo, human
# details: human, plasma, po, 200 mg, Normal Hepatic Function; 24 h; 200 mg single oral dose; read-out: Unbound Concentration, Arithmetic Mean
recordedEndpoint: concentration at 24 h (ng/mL)
Give the number; ng/mL is assumed, so skip it.

Given item N#CC1(c2ccc(NC(=O)c3cccnc3NCc3ccncc3)cc2)CCCC1 [Rivoceranib] , the value recorded as its concentration at 24 h is 0.73

* * *

# procedureText: Phase 1 single-dose plasma pharmacokinetics in subjects with normal hepatic function, mild or moderate hepatic impairment
# Format: in vivo, human
# details: human, plasma, po, 200 mg, Normal Hepatic Function; 36 h; 200 mg single oral dose; read-out: Plasma concentration, Median
recordedEndpoint: concentration at 36 h (ng/mL)
// note: answer is a bare numeric in ng/mL

The recorded concentration at 36 h for entry N#CC1(c2ccc(NC(=O)c3cccnc3NCc3ccncc3)cc2)CCCC1 [Rivoceranib] equals 24.2

* * *

# procedureText: Phase 1 single-dose plasma pharmacokinetics in subjects with normal hepatic function, mild or moderate hepatic impairment
# Assay type: in vivo, human
# details: human, plasma, po, 200 mg, Mild Hepatic Impairment; 36 h; 200 mg single oral dose; read-out: Plasma concentration, Arithmetic Mean
recordedEndpoint: concentration at 36 h

Value of measured concentration at 36 h for the entry N#CC1(c2ccc(NC(=O)c3cccnc3NCc3ccncc3)cc2)CCCC1 [Rivoceranib] : 16.1 ng/mL

* * *

# procedureText: Phase 1 single-dose plasma pharmacokinetics in subjects with normal hepatic function, mild or moderate hepatic impairment
# Assay type: in vivo, human
# details: human, plasma, po, 200 mg, Normal Hepatic Function; 16 h; 200 mg single oral dose; read-out: Plasma concentration, Geometric Mean
# From the text: Patients: 27 subjects were enrolled within the following groups based on their Child-Pugh (CP) classification score: • Group 1: Matched-control healthy subjects with normal hepatic function; • Group 2: Subjects with mild hepatic impairment (CP Class A, score of 5 or 6); • Group 3: Subjects with moderate hepatic impairment (CP Class B, score of 7 to 9). A parallel design strategy was adopted for the hepatic impairment groups. […]
recordedEndpoint: concentration at 16 h (ng/mL)
Write it as a number; the unit ng/mL goes unstated.

So, N#CC1(c2ccc(NC(=O)c3cccnc3NCc3ccncc3)cc2)CCCC1 ? Its concentration at 16 h was 45.7

* * *

# procedureText: Phase 1 single-dose plasma pharmacokinetics in subjects with normal hepatic function, mild or moderate hepatic impairment
# Format: in vivo, human
# details: human, plasma, po, 200 mg, Normal Hepatic Function; 200 mg single oral dose; read-out: VZ/F, Arithmetic Mean
recordedEndpoint: Vd/F

// Vd/F value for N#CC1(c2ccc(NC(=O)c3cccnc3NCc3ccncc3)cc2)CCCC1 [Rivoceranib] : 1340 L

* * *

# procedureText: Phase 1 single-dose plasma pharmacokinetics in subjects with normal hepatic function, mild or moderate hepatic impairment
# Format: in vivo, human
# details: human, plasma, po, 200 mg, Mild Hepatic Impairment; 12 h; 200 mg single oral dose; read-out: Plasma concentration, Arithmetic Mean
recordedEndpoint: concentration at 12 h (ng/mL)
Numeric answer only, unit ng/mL assumed.

Sure, the documented concentration at 12 h for N#CC1(c2ccc(NC(=O)c3cccnc3NCc3ccncc3)cc2)CCCC1 is 66.6
